Let's look at some compounds and their measured growth inhibition.
# protocol.text: NCI Yeast Anticancer Drug Screen. Data for the rad14 strain (AID 159);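 note: 0% = growth of vehicle-treated control cultures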
# applied.conditions: S. cerevisiae rad14 strain growth inhibition; at 11.0 µM; hits give high values
The panel holds about 79,000 compounds, 15% with a hit somewhere; the sample as a whole holds those more often.
parameter: growth inhibition (%)

INSERT INTO measurements (compound, numeric_readout) VALUES
  ('CC1(C)C(C=O)=CCC1CC(N)=O (stereo unspecified)', -3),
  ('CN(N=O)c1ccc(/C=C/c2ccnc3ccccc23)cc1', 10),
  ('COc1ccc(/C=C2\SC(=S)N(C=C3C(=O)NC(=S)NC3=O)C2=O)cc1OC', 52),
  ('CC1=CCC(C(C)(C)c2ccc(O)cc2)CC1 (stereo unspecified)', -39),
  ('Nc1ccc2c(c1)sc1ccccc12', -1),
  ('Cc1cc(OCc2ccccc2)ccc1[N+](=O)[O-]', 11),
  ('CC1=CC2C(C(C)C)CC1C1C(=O)OC(=O)C21 (stereo unspecified)', 13),
  ('CCC(=O)Oc1ccc(/C=N/NC(N)=S)nc1', 3),
  ('Nc1nc(N)c2c(n1)CCC(S(=O)(=O)c1ccc3ccccc3c1)C2 (stereo unspecified)', -11),
  ('OCCNCCOc1ccc(/C(=C(/Cl)c2ccccc2)c2ccccc2)cc1', 76),
  ('CC(=O)OCC1OC(O[C@H]2C=C[C@@H](C(=O)OCc3ccccc3)n3c(=O)n(-c4ccccc4)c(=O)n32)C(OC(C)=O)C(OC(C)=O)C1OC(C)=O (stereo partly specified)', -8);

Taken from PubChem BioAssay (NCI).
